# target-or-test-system: Fibroblast growth factor 2 (Homo sapiens)
# method-description: FGF2 binders on small-molecule microarrays, primary screen, biochemical, small-molecule microarray, 635/667 nm fluorescence (AID 1133)
# recorded-conditions: small-molecule microarray binding, FGF2, fluorescence 635/667; higher = more signal
Parameter composite z-score: see the listing below.
No unit in the answer, please; the number alone is enough.

compound=CCOC(=O)C[C@H]1[C@H](OC(=O)c2ccc(C(=O)c3ccccc3)cc2)[C@@H](NC(=O)c2ccc(-c3ccccc3)cc2)c2cc(OCCCO)ccc2N1C(=O)c1ccc2ccccc2n1 value=0.688
compound="COC(=O)[C@H](C)NC(=O)CCC1CC(OC(=O)NCCc2ccc(F)cc2)CC2(CCCC(COC(=O)NCCc3ccc(Cl)cc3)O2)O1 (stereo partly drawn)" value=1.05
compound=CC(C)CON=C1C[C@@H](O)[C@@H](O)[C@@H]2[C@@H]3C(=O)N(Cc4ccccc4)C(=O)[C@@H]3CC[C@@H]12 value=0.239
compound=O=C1c2ccccc2[C@@]2(Cc3ccccc3N(C3CC3)C2=O)[C@H](c2ccc(CO)cc2)N1Cc1ccccc1C(F)(F)F value=-1.09
compound=C=CCOC(=O)[C@H]1[C@@H]2C(=O)O[C@@H](c3ccccc3)[C@@H](c3ccccc3)N2[C@@H](c2ccc(OCCOC(=O)[C@H]3C[C@H]4C(=O)N[C@@H](Cc5ccccc5)C(=O)N4[C@H]3c3ccc(O)cc3)cc2)[C@]12C(=O)Nc1ccccc12 value=1.67
compound="COCCNC(=O)OCC1CCCC2(CC(OC(=O)NCCc3ccc(F)cc3)CC(CCC(=O)N[C@@H](C)C(=O)OC)O2)O1 (stereo partly drawn)" value=1.18
compound=COCCOC(=O)N1C(=O)[C@@]2(c3cc(C#Cc4ccc(OC)cc4)ccc31)[C@H](C(=O)N1CCN(c3ncccn3)CC1)[C@H]1C(=O)O[C@H](c3ccccc3)[C@H](c3ccccc3)N1[C@@H]2c1ccc(OCCO)cc1 value=1.06
compound="COc1cccc([C@H]2Oc3ccc(OC)cc3C(=NOC(C)CN3CCCc4nc(C)c(C)cc43)[C@@H]2O)c1 (stereo partly drawn)" value=0.125

Turning now to a further compound:
Enquiry: What does the record list as composite z-score for CC(=O)O[C@H]1C2=C(C(=O)[C@@H]3O[C@@H]31)[C@H]1C(C)O[C@@H]2[C@@]23C(=O)[C@@H]4O[C@@H]4[C@@H](O)C2=CO[C@H](C)[C@@H]13 (stereo partly drawn) ?
Return: 0.877

###

# Tested on: glycogen synthase kinase-3 (GSK3A per assay name; protocol says GSK3B)
# method-description: GSK3 binders on small-molecule microarrays, primary screen, biochemical, small-molecule microarray, 635 nm fluorescence, GSK3A (AID 1103); also: the record names both GSK3A and GSK3B
# recorded-conditions: small-molecule microarray binding, fluorescence 635 nm; higher = more signal
value-kind: composite z-score
Could you respond with only the numeric value?

// below: answered compounds
compound=CC(C)[C@@H](OCc1ccccc1)[C@H](C)C=NO[C@H](C)c1cn([C@H](CO)Cc2ccccc2)nn1 target_or_test_system="glycogen synthase kinase-3 (GSK3A per assay name; protocol says GSK3B)" value=0.562
compound=C#C[C@@H](CC)O[Si](C#Cc1ccc(Oc2ccccc2)cc1)(C(C)C)C(C)C target_or_test_system="glycogen synthase kinase-3 (GSK3A per assay name; protocol says GSK3B)" value=0.777
compound=CCOC(=O)NN=C1C[C@@H](O)[C@@H](O)[C@@H]2[C@@H]3C(=O)N(C(C)(C)C)C(=O)[C@@H]3CC[C@@H]12 target_or_test_system="glycogen synthase kinase-3 (GSK3A per assay name; protocol says GSK3B)" value=-1.09
compound=CC(C)=NOCc1ccc(-c2cc(-c3ccccc3)no2)cc1 target_or_test_system="glycogen synthase kinase-3 (GSK3A per assay name; protocol says GSK3B)" value=0.283

Enquiry: Can you share its composite z-score? I mean this compound: CC(C)C[C@@H]1NC(=O)[C@H]2C[C@@H](C(=O)O)[C@@H](c3ccc(O)cc3)N2C1=O
Return: 0.141

Enquiry: Param item = COC(=O)[C@@H]1CC[C@H](C)[C@@H](c2ccc(C)cc2)N1C(=O)c1ccc(C=NOC(C)CN2CCCCc3nc(C)c(C)cc32)cc1 (stereo partly specified) ; retrieve measured composite z-score.
Return: -0.626
